- experimental target: Human recombinant MMP-2 (Homo sapiens, UniProt P08253)
- Construct: made in house; host or cells: MMP-2-transfected p2AHT2 cells
- Sequence (P08253 110-660): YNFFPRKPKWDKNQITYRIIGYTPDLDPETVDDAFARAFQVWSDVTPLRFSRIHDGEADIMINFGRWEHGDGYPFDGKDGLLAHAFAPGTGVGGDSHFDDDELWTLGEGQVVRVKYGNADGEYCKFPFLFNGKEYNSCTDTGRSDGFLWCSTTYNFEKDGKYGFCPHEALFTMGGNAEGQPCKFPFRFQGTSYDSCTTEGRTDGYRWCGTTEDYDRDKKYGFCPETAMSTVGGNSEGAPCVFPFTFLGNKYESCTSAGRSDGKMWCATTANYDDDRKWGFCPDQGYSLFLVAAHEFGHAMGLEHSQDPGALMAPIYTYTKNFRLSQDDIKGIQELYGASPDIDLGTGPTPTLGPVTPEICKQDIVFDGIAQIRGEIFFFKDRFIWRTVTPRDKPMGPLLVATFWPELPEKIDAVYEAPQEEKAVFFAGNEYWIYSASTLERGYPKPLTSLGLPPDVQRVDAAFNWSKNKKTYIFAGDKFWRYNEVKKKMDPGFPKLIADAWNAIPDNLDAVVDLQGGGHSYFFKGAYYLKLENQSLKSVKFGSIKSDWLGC
- test protocol: In vitro MMP inhibition, IC50 determination (fluorogenic substrate I)
- Type: biochemical
- condition parameters: value outside parenthesis
property: IC50 (nM)

// known answers, use as guide
COCCN1CCC(C(=O)NO)(S(=O)(=O)c2ccc(OCCCn3ncc(-c4ccc(OC)cc4)c3C(F)(F)F)cc2)CC1 [Example 202]	1600
COc1ccccc1-c1nnc(CCCOc2ccc(S(=O)(=O)C3(C(=O)NO)CCOCC3)cc2)o1 [Example 220]	410
CC(=O)NC(C)(C)CCOc1ccc(S(=O)(=O)C2(C(=O)NO)CCOCC2)cc1 [Example 242]	2720
O=C1N(CCCOc2ccc(S(=O)(=O)C3(C(=O)NO)CCOCC3)cc2)CCN1c1ccc(C(F)(F)F)cc1 [Example 193]	312
COc1cccc(-c2nnc(CCCOc3ccc(S(=O)(=O)C4(C(=O)NO)CCOCC4)cc3)o2)c1 [Example 280]	170

[a] COCCN1CCC(C(=O)NO)(S(=O)(=O)c2ccc(OCCCc3nc(-c4ccc(CC(C)C)cc4)no3)cc2)CC1 [Example 175]
[b] O=C(NO)C1(S(=O)(=O)c2ccc(OCCc3cccc(-c4ccccc4Cl)c3)cc2)CCOCC1 [Example 114]
Q) Given a and given b , which shows the smaller recorded IC50? Which one? Tell me its label.
A) a

###

- experimental target: Human recombinant MMP-14 (Homo sapiens)
- Construct: The catalytic domain enzyme was expressed in E. coli inclusion bodies, solubilized in urea; made in house
- test protocol: In vitro MMP inhibition, IC50 determination (fluorogenic substrate I)
- Format: biochemical
- condition parameters: value outside parentheses (Ki in parenthesis)
pIC50: −log10 of the molar value.
The entries below are paired with their reported pIC50.

Below, 7 compounds whose answers are already recorded.
O=C(NCCCOc1ccc(S(=O)(=O)C2(C(=O)NO)CCOCC2)cc1)c1cnc2ccccc2c1	< 5.00
CN(C)c1ccc(NC(=O)CCCOc2ccc(S(=O)(=O)C3(C(=O)NO)CCOCC3)cc2)cc1	< 5.00
CCCC(CCOc1ccc(S(=O)(=O)C2(C(=O)NO)CCOCC2)cc1)SC (centres unmarked)	5.44
COc1ccc(C(O)CCCCOc2ccc(S(=O)(=O)C3(C(=O)NO)CCOCC3)cc2)cc1 (centres unmarked)	5.80
O=C(CCCCOc1ccc(S(=O)(=O)C2(C(=O)NO)CCOCC2)cc1)c1cccc(-c2ccccc2)c1	< 5.00
CCCCOc1ccc(C(=O)NCCCOc2ccc(S(=O)(=O)C3(C(=O)NO)CCOCC3)cc2)cc1	< 5.00
O=C(NO)C1(S(=O)(=O)c2ccc(OCCCS(=O)(=O)C3CCCCC3)cc2)CCOCC1	< 5.00

Measured pIC50 of CN(C)c1ccc(/C=C/CCCOc2ccc(S(=O)(=O)C3(C(=O)NO)CCOCC3)cc2)cc1 : < 5.00

###

- experimental target: Human recombinant MMP-9 (Homo sapiens, UniProt P14780)
- Construct: made in house; host or cells: MMP-9-transfected HT1080 cells (spent media)
- Sequence (P14780 107-707 limits assumed): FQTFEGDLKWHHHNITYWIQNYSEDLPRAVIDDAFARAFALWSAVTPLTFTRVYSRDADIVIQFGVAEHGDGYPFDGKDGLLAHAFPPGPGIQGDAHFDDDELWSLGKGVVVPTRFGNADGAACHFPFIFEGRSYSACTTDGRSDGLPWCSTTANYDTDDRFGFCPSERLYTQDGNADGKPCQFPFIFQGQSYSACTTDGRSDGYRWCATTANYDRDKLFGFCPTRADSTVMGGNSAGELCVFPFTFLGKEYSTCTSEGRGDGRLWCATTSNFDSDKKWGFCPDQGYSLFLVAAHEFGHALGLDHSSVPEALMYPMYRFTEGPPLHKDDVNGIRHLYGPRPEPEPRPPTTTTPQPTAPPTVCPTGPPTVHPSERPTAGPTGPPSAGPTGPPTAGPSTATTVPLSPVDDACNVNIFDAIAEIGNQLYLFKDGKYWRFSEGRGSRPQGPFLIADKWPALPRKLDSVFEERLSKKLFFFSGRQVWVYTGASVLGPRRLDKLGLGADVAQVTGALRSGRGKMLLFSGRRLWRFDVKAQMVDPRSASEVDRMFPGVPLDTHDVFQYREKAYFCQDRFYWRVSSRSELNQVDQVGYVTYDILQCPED
- test protocol: In vitro MMP inhibition, Ki determination (fluorogenic substrate II)
- Type: biochemical
- condition parameters: substrate (II) 4 μM, 1 hr room temperature; apparent Ki, values in parenthesis
Where a name gives a salt, the structure may show the parent alone.
property: Ki (nM)

O=C(NO)C1(S(=O)(=O)c2ccc(OCCc3cccc(-c4ccccn4)c3)cc2)CCOCC1	585
NC(=O)c1cccc(OCCOc2ccc(S(=O)(=O)C3(C(=O)NO)CCOCC3)cc2)c1	388
O=C(NO)C1(S(=O)(=O)c2ccc(OCCCc3cccc(-c4ccc(F)cc4)c3)cc2)CCOCC1	2360
O=C(NO)C1(S(=O)(=O)c2ccc(OCCCc3nc(-c4ccc(OC(F)(F)F)cc4)no3)cc2)CCOCC1	1600

[I] CCN1CCC(C(=O)NO)(S(=O)(=O)c2ccc(OCCCc3cccc(-c4ccccc4)c3)cc2)CC1
[II] CCN1CCC(C(=O)NO)(S(=O)(=O)c2ccc(OCCCc3nc(-c4ccc(OC(F)(F)F)cc4)no3)cc2)CC1 [Example 41, Hydrochloride]
Q) API: POST /compare with I and II ; response names the item with higher Ki. To answer, give the label that identifies your chosen option.
A) II
(II: 1470 nM, I: 418 nM)

###

- experimental target: Human recombinant MMP-9 (Homo sapiens)
- Construct: made in house; host or cells: MMP-9-transfected HT1080 cells (spent media)
- test protocol: In vitro MMP inhibition, IC50 determination (fluorogenic substrate I)
- Type: biochemical
- condition parameters: substrate (I) 4 μM, room temperature; values not in parenthesis
Where a name gives a salt, the structure may show the parent alone.
property: IC50 (µM)

CCN1CCC(C(=O)NO)(S(=O)(=O)c2ccc(OCCCc3nc(-c4ccc(OC(F)(F)F)cc4)no3)cc2)CC1 [Example 41, Hydrochloride]	1.6
O=C(NO)C1(S(=O)(=O)c2ccc(OCCc3cccc(-c4ccccn4)c3)cc2)CCOCC1	0.413
COc1ccc(C(=O)NCCCOc2ccc(S(=O)(=O)C3(C(=O)NO)CCN(C4CC4)CC3)cc2)cc1 [Example 18, Monohydrochloride]	6

[1] COc1ccc(/C(CCCCOc2ccc(S(=O)(=O)C3(C(=O)NO)CCOCC3)cc2)=N/O)c(OC)c1
[2] Cc1ccccc1-c1nnc(CCCOc2ccc(S(=O)(=O)C3(C(=O)NO)CCOCC3)cc2)o1
Q) Pick one: 1 or 2 . Which has the bigger IC50 number? State the label of the item chosen.
A) 1

###

- experimental target: Human recombinant MMP-13 (Homo sapiens)
- Construct: made in house; host or cells: baculovirus / insect cells
- test protocol: In vitro MMP inhibition, IC50 determination (fluorogenic substrate I)
- Format: biochemical
- condition parameters: value outside parenthesis
pIC50: −log10 of the molar value.
property: pIC50

COCCN1CCC(C(=O)NO)(S(=O)(=O)c2ccc(OCCCCC(=O)c3ccc(OC)cc3)cc2)CC1	9.70

[P] O=C(NO)C1(S(=O)(=O)c2ccc(OCCCc3cccc(-c4ccc(Cl)c(Cl)c4)c3)cc2)CCOCC1
[Q] COCCN1CCC(C(=O)NO)(S(=O)(=O)c2ccc(OCCCNC(=O)c3ccc(OC(C)C)c(C)c3)cc2)CC1
[R] COCCN1CCC(C(=O)NO)(S(=O)(=O)c2ccc(OCCCc3nc(-c4ccc(CC(C)C)cc4C)no3)cc2)CC1
Q) Please put the entries in order of rising pIC50. # answer = labels listed in requested order
A) P, R, Q

###

- experimental target: Human recombinant MMP-9 (Homo sapiens, UniProt P14780)
- Construct: made in house; host or cells: MMP-9-transfected HT1080 cells (spent media)
- test protocol: In vitro MMP inhibition, IC50 determination (fluorogenic substrate I)
- Assay type: biochemical
- condition parameters: value outside parentheses
pIC50: −log10 of the molar value.
property: pIC50

[I] O=C(NO)C1(S(=O)(=O)c2ccc(OCCOCc3cccc(F)c3)cc2)CCOCC1 [Example 663]
[II] O=C(NO)C1(S(=O)(=O)c2ccc(OCCCc3cccc(-c4ccc5c(c4)OCO5)c3)cc2)CCOCC1 [Example 628]
[III] O=C(CCCOc1ccc(S(=O)(=O)C2(C(=O)NO)CCOCC2)cc1)N1CC[C@@H](c2ccccc2)[C@@H](O)C1 [Example 652]
[IV] O=C(NO)C1(S(=O)(=O)c2ccc(OCCOCC3CCCCO3)cc2)CCOCC1 (stereo not shown) [Example 661]
Q) Arrange these compounds by their pIC50, starting with the largest number. In your reply, arrange the labels in the requested order.
A) I, III, IV, II

###

- experimental target: Human recombinant MMP-9 (Homo sapiens)
- Construct: made in house; host or cells: MMP-9-transfected HT1080 cells (spent media)
- test protocol: In vitro MMP inhibition, IC50 determination (fluorogenic substrate I)
- Assay type: biochemical
- condition parameters: substrate (I) 4 μM, room temperature; values not in parenthesis
Where a name gives a salt, the structure may show the parent alone.
property: IC50 (µM)

COc1ccc(C(=O)C(C)CCCOc2ccc(S(=O)(=O)C3(C(=O)NO)CCOCC3)cc2)cc1 (stereo not shown)	4.43

[I] COCCN1CCC(C(=O)NO)(S(=O)(=O)c2ccc(OCCCSc3nc4ccccc4o3)cc2)CC1 [Example 43, Hydrochloride]
[II] COc1ccc(-c2coc(CCCOc3ccc(S(=O)(=O)C4(C(=O)NO)CCOCC4)cc3)n2)cc1
[III] O=C(NO)C1(S(=O)(=O)c2ccc(OCCCn3nnc(-c4ccc(OC(F)(F)F)cc4)n3)cc2)CCN(C2CC2)CC1
[IV] O=C(NO)C1(S(=O)(=O)c2ccc(OCCCSc3nc4ccccc4o3)cc2)CCOCC1
Q) Put these in order: smallest IC50 first, largest last. // format: requested-order list of labels
A) I, IV, II, III
